Each recorded value in this set is attributed to paper PMC7520419.

- measurementDescription: PBPK food effect modeling (Simcyp V17.1 and/or GastroPlus V9.5; Model 1 / Model 2)
- Set-up: species or system human
- conditionSummary: Model 1
assayEndpoint: Cmax Ratio of Ratios (Sim'd / Obs'd)
Please reply with the number alone, leaving off any unit.

Take a look at these entries with their results.
{"molecule": "NNC(=O)c1ccncc1", "Cmax Ratio of Ratios (Sim'd / Obs'd)": 1.48}
{"molecule": "O=C1NC(=O)C(c2ccccc2)(c2ccccc2)N1", "Cmax Ratio of Ratios (Sim'd / Obs'd)": 0.92}
{"molecule": "Cc1[nH]c2ccccc2c1CCNCc1ccc(/C=C/C(=O)NO)cc1", "Cmax Ratio of Ratios (Sim'd / Obs'd)": 0.61}
{"molecule": "CN/C(=N/CCSCc1nc[nH]c1C)NC#N", "Cmax Ratio of Ratios (Sim'd / Obs'd)": 0.87}
{"molecule": "Cc1ccc(-c2ncc(Cl)cc2-c2ccc(S(C)(=O)=O)cc2)cn1", "Cmax Ratio of Ratios (Sim'd / Obs'd)": 0.97}

Inquiry: Param item = CCC(C)n1ncn(-c2ccc(N3CCN(c4ccc(OCC5COC(Cn6cncn6)(c6ccc(Cl)cc6Cl)O5)cc4)CC3)cc2)c1=O (stereo not drawn) ; retrieve measured Cmax Ratio of Ratios (Sim'd / Obs'd).
Reply text: 1.03
